target: purified human anti-Galα(1,3)Gal IgG antibodies (human); assay: competition ELISA (I50): peptide inhibits anti-Galα(1,3)Gal IgG binding to Galα(1,3)Gal-BSA
MEASURED_QUANTITY: pIC50
Give bare numbers, as −log10 of the molar value.

Before answering, review these 2 worked examples.
Requested read-out: pIC50. Entry: DAHWESWL [Gal pep 1 (DAHWESWL), synthetic peptide] 2.00

CPAHGVTSAPDTRPAPGSTAP [Muc pep 1] ? 2.60

***
Requested read-out: pIC50. Entry: TSSASTGHATPLPVTP [Muc pep 11] 2.60
